# reported IC50; entries follow
Biological target: Human immunodeficiency virus type 1 protease (Human immunodeficiency virus 1, UniProt Q72874)
Kindly answer with a numeric value in nM, unit omitted.

Past entries and their recorded results:
C[C@H](O)CN(C[C@@H](O)[C@H](Cc1ccccc1)NC(=O)c1ccc(O)cc1O)S(=O)(=O)c1ccc([N+](=O)[O-])cc1
47.1
C[C@H](O)CN(C[C@@H](O)[C@H](Cc1ccccc1)NC(=O)c1ccc(O)c(O)c1)S(=O)(=O)c1ccc(C(F)(F)F)cc1
6.53
COc1ccc(C(=O)N[C@@H](Cc2ccccc2)[C@H](O)CN(C[C@@H](C)O)S(=O)(=O)c2ccc(C(F)(F)F)cc2)c(O)c1
427
COc1cc(C(=O)N[C@@H](Cc2ccccc2)[C@H](O)CN(C[C@H](C)O)S(=O)(=O)c2ccc(C(F)(F)F)cc2)cc(OC)c1O
14

input: Value lookup for IC50; key = C[C@H](O)CN(C[C@@H](O)[C@H](Cc1ccccc1)NC(=O)c1ccc(O)cc1O)S(=O)(=O)c1ccc(C(F)(F)F)cc1
output: 40.6

input: Value lookup for IC50; key = C[C@@H](O)CN(C[C@@H](O)[C@H](Cc1ccccc1)NC(=O)c1ccccc1O)S(=O)(=O)c1ccc(C(F)(F)F)cc1
output: 32.1

input: Value lookup for IC50; key = COc1cc(O)c(C(=O)N[C@@H](Cc2ccccc2)[C@H](O)CN(C[C@H](C)O)S(=O)(=O)c2ccc([N+](=O)[O-])cc2)cc1OC
output: 1310

---

Target: UniProt:Q72874
experimental.endpoint: pIC50
# pIC50 is unitless: minus log10 of the molar concentration; print number only

COc1ccc(C(=O)N[C@@H](Cc2ccccc2)[C@H](O)CN(C[C@H](C)O)S(=O)(=O)c2ccc([N+](=O)[O-])cc2)c(O)c1
6.30
C[C@@H](O)CN(C[C@@H](O)[C@H](Cc1ccccc1)NC(=O)c1ccc(O)c(O)c1)S(=O)(=O)c1ccc(C(F)(F)F)cc1
8.79
C[C@@H](O)CN(C[C@@H](O)[C@H](Cc1ccccc1)NC(=O)c1ccc(O)cc1O)S(=O)(=O)c1ccc(C(F)(F)F)cc1
7.91

Kindly consider the entry below.
input: Request: pIC50, test system UniProt:Q72874, entry COc1cc(C(=O)N[C@@H](Cc2ccccc2)[C@H](O)CN(C[C@H](C)O)S(=O)(=O)c2ccc([N+](=O)[O-])cc2)cc(OC)c1O
output: 7.12

---

# reported pIC50; entries follow
Target: Human immunodeficiency virus type 1 protease (Human immunodeficiency virus 1, UniProt Q72874)
# pIC50 is unitless: minus log10 of the molar concentration; print number only

C[C@H](O)CN(C[C@@H](O)[C@H](Cc1ccccc1)NC(=O)c1cc(O)cc(O)c1)S(=O)(=O)c1ccc([N+](=O)[O-])cc1
7.43

input: Value lookup for pIC50; key = COc1cc(C(=O)N[C@@H](Cc2ccccc2)[C@H](O)CN(C[C@@H](C)O)S(=O)(=O)c2ccc(C(F)(F)F)cc2)cc(OC)c1O
output: 7.93

input: Value lookup for pIC50; key = COc1ccc(C(=O)N[C@@H](Cc2ccccc2)[C@H](O)CN(C[C@H](C)O)S(=O)(=O)c2ccc(C(F)(F)F)cc2)c(O)c1
output: 6.73
